Target: Estrogen receptor (Homo sapiens)
Sequence (P03372 whole entry): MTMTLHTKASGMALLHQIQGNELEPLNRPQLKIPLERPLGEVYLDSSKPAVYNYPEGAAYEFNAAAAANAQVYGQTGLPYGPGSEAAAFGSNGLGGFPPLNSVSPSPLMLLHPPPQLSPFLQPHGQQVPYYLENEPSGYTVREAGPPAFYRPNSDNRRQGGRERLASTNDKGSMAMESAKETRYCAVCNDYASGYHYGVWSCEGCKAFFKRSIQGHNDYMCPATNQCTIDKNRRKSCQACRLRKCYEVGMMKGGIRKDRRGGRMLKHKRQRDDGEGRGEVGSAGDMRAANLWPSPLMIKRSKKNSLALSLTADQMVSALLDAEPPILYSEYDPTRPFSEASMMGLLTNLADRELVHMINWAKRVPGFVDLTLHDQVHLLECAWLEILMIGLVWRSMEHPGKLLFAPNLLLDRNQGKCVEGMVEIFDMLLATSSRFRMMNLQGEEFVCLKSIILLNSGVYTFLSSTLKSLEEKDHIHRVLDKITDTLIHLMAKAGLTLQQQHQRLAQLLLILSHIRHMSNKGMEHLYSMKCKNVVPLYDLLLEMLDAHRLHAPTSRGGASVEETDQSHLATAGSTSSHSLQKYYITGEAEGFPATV
Collected from the literature: pIC50 of various compounds toward Estrogen receptor (Homo sapiens).
pIC50 here is simply -log10 of the concentration when that concentration is written in mol/L.

Q: # value lookup — system Estrogen receptor (Homo sapiens), readout pIC50, item C#Cc1cc(O)cc2ccc(-c3ccc(O)c(F)c3)cc12
Result: 7.14

Q: Under Estrogen receptor (Homo sapiens): pIC50 value of CCCCCCCCCCCCNCCOc1ccc(/C(=C(/CC)c2ccccc2)c2ccc(O)cc2)cc1 ?
Result: 7.85

Q: Under Estrogen receptor (Homo sapiens): pIC50 value of O=C(c1ccc(N2CCN(C(=O)c3cccc(O)c3)CC2)cc1)c1c(-c2ccc(O)cc2)sc2cc(O)ccc12 ?
Result: 8.86

###

Target: UniProtKB P03372
Sequence (P03372 whole entry): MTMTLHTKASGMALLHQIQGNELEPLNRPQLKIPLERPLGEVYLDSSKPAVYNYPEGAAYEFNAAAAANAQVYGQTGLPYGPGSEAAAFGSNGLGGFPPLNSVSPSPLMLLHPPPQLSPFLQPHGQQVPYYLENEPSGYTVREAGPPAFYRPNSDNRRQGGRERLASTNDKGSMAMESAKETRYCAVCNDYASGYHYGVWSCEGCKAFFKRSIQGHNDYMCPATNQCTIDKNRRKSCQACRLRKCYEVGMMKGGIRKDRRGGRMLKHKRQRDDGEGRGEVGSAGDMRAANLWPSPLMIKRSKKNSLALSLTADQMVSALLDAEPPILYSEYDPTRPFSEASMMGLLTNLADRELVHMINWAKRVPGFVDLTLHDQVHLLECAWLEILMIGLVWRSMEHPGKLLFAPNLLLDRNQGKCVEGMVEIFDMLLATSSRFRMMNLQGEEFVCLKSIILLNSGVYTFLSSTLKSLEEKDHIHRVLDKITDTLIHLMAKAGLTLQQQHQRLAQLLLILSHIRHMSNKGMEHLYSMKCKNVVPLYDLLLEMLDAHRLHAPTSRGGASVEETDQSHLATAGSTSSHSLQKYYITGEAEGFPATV
Hi, quick share: literature pIC50 data for UniProtKB P03372, several sources combined.
Bear in mind: pIC50 is minus log10 of a mol/L concentration; give just that figure.

Q: Return reported pIC50; argument: Cc1c(O)ccc2c1oc(=O)c1c(Br)cc(Br)cc12
Result: 6.22

Q: Which pIC50 is reported for this compound? Oc1ccc2c(c1)S[C@H](C1CCCCCC1)[C@H](c1ccc(OCCN3CCCCC3)cc1)O2
Result: 8.12

Q: Tell me the measured pIC50 of OC[C@H]1CCCN1CCOc1ccc([C@@H]2Oc3ccc(O)cc3S[C@@H]2c2ccc(O)cc2)cc1 , please.
Result: 8.70

Q: Entry under review: CCCCC12CCC(=O)C(CCC)=C1c1ccc3[nH]nnc3c1C2 (centres undefined) . Reported pIC50?
Result: 5.90

Q: Bench note: what pIC50 did Cn1cc(NC(=O)c2cc(NC(=O)CCS(C)(=O)=O)cn2C)cc1C(=O)NCCC(=O)NCCCCCC[C@@H]1Cc2cc(O)ccc2[C@H]2CC[C@]3(C)[C@@H](O)CC[C@H]3[C@H]12 show?
Result: 8.83

Q: What measured pIC50 goes with Oc1ccc(-c2ccc3c(Cl)c(O)ccc3n2)cc1 ?
Result: 6.20

Q: Which value of pIC50 has been reported for Oc1ccc2c(c1)sc1c3ccccc3n(Cc3ccc(OCCN4CCCCCC4)cc3)c21 in the records?
Result: 7.74

Q: Param item = Cc1c(O)ccc2c1c(=O)oc1cc(O)cc(C)c12 ; retrieve measured pIC50.
Result: 5.73

Q: What value of pIC50 has been recorded for this entry: CCC1=C2c3ccc4[nH]nnc4c3CC2(CC)CCC1=O (centres undefined)
Result: 5.88
